Kindly supply the reported HSA values for the records listed here.
tested.on: human serum albumin (human) (UniProt P02768)
Sequence (P02768 25-609 limits assumed): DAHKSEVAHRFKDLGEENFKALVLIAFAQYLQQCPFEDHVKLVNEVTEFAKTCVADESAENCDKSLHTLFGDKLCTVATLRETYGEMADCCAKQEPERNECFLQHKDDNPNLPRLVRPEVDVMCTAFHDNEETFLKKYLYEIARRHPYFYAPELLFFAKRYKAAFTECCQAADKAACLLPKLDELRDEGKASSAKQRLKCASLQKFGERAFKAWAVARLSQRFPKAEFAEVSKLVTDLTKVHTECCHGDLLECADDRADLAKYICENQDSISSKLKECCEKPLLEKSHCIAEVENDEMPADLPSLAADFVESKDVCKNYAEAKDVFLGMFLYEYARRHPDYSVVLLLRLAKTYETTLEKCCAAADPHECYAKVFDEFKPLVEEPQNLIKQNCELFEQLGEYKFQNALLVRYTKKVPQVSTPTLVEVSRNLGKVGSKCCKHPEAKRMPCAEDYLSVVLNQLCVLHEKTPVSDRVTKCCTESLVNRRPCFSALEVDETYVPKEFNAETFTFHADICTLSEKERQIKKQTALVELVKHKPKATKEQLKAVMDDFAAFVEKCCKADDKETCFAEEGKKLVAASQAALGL
method: screening ELISA

[[record]]
binder = "SEQ ID NO 34 (designed binder) MLPAPKNLVVSRVTEDSARLSWTAPDAAFDSFAITYIEWWDVGEAIGLKVPGSERSYDLTGLKPGTEYRVHIQGVKGGNNSYPLDALFTT"
observed = 25900


// switching to the query binder
Fill in reported HSA for this entry: SEQ ID NO 175 (designed binder) MLPAPKNLVVSRVTEDSARLSWTAPDAAFDSFFIGYLEPQPPGEAIVLTVPGSERSYDLTGLKPGTEYSVVIQGVKGGFPSDPLSAIFTT
1600
